biological target: Serine/threonine-protein kinase MRCK alpha (Homo sapiens) (UniProt Q5VT25); details: at 0.1 µM;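 further: each inhibition figure is a mean value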
Sequence (Q5VT25 whole entry): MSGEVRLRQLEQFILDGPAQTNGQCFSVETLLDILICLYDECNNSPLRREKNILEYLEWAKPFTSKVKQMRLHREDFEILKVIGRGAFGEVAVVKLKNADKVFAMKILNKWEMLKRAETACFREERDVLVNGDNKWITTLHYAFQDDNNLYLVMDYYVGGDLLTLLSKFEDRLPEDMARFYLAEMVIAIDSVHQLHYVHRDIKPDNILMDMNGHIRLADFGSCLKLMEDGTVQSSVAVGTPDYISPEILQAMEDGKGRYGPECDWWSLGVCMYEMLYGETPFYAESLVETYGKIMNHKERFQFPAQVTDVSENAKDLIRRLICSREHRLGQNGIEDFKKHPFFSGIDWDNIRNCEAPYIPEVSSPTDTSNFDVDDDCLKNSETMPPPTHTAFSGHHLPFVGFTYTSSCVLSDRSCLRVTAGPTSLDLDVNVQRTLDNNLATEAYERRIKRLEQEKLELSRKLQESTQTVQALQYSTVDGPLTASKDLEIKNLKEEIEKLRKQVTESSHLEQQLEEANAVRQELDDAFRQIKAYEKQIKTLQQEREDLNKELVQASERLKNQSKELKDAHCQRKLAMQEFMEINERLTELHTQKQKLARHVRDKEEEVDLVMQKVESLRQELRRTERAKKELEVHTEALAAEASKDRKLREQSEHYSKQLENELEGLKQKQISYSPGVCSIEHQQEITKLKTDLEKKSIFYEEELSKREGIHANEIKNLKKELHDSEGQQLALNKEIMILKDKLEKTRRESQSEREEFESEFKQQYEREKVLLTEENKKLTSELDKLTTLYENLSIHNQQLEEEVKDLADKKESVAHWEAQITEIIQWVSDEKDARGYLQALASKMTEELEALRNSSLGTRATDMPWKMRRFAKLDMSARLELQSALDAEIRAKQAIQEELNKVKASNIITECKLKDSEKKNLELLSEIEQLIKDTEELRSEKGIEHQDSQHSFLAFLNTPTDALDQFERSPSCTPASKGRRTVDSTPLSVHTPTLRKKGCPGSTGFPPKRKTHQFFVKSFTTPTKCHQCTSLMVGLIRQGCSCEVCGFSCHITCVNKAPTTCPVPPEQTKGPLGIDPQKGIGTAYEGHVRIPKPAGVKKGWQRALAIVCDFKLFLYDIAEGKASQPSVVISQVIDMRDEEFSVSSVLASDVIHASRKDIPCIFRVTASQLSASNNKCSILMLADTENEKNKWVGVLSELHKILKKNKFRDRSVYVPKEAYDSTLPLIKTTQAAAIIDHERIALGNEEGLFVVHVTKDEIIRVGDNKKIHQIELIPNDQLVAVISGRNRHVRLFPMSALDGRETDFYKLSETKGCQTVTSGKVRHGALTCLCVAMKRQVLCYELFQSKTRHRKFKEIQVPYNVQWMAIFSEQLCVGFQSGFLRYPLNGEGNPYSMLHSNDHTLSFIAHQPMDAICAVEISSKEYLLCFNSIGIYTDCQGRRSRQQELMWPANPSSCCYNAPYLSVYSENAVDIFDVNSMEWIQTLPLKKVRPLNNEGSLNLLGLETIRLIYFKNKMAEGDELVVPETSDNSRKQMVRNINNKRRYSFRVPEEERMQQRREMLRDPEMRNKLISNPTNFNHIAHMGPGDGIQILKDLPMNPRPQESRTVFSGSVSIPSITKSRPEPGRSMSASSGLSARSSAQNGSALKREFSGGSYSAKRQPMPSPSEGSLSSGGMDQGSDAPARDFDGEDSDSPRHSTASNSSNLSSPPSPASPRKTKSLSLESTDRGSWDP
Each entry below carries its recorded inhibition.
Only the number, expressed in %, is required.

Request: Give a short answer stating reported inhibition for COc1ccc(-c2nn3ncccc3c2-c2ccnc(Nc3ccc(F)c(F)c3)n2)cc1 .
Result: 0.67

Request: Answer with the recorded inhibition of CS(=O)(=O)Nc1ccc(-c2cc(-c3ccccc3)cc(C(N)=O)c2N)cc1 only.
Result: -0.32

Request: Provide inhibition value for the following compound: Cc1cc(O)cc(C)c1/C=C/c1cncc(C(N)=O)c1
Result: 0.25

---

target: Ribosomal protein S6 kinase alpha-3 (Homo sapiens) (UniProt P51812); conditions: at 1 µM
Sequence (P51812 whole entry): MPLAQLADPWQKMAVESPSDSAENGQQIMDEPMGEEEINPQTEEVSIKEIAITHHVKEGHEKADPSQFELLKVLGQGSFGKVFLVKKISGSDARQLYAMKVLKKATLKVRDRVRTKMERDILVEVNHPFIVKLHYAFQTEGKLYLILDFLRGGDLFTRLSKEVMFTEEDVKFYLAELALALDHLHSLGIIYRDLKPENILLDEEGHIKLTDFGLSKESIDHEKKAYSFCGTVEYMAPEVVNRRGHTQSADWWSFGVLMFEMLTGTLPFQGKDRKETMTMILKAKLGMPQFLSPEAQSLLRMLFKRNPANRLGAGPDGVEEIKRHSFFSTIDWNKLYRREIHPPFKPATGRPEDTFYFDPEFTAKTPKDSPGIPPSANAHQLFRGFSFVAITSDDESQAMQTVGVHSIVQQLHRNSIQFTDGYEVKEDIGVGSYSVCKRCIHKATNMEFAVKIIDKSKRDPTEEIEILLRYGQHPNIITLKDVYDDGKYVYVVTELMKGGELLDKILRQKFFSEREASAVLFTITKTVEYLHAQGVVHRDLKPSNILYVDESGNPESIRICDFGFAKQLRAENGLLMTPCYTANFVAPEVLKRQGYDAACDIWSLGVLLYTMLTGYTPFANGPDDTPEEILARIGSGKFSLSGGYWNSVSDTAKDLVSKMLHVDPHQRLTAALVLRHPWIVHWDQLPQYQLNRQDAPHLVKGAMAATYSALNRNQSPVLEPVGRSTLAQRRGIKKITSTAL
Description: GSK_PKIS: RSK2 mean inhibition at 1 uM [Nanosyn]
Listed here: items and their measured inhibition.
Please reply with the bare figure in % and do not write the unit itself.

Request: Enter inhibition (test system Ribosomal protein S6 kinase alpha-3 (Homo sapiens) (UniProt P51812)) for CNC(=O)c1cncc(/C=C/c2ccccc2C)c1
Result: 3.84
